# Test system: HCT-15 colon
# ASSAY REMARKS: NCI-60 one-dose screen, 48 h (100 = growth as untreated, 0 = no growth, -100 = all killed)
# MEASUREMENT CONDITIONS: 10 µM unless noted
This is part of a sample that, as a whole, favours compounds with a hit. Of some 83,000 tested, about 20% had one in any assay.
PARAMETER: growth (%)
Dear colleague, please return just the value in %, with no unit written.

The value of growth measured for the molecule CSc1nc2sc3cccc(Cl)c3n2c(=N)c1C#N turned out to be 111

Reported growth ( c1ccc2c(-c3nccs3)c[nH]c2c1 ) = 94.3

Sure, the documented growth for O=C1NN(C(=O)c2ccccc2)C(c2ccc(Cl)c(Cl)c2)=C/C1=C\c1ccc([N+](=O)[O-])cc1 is 71.8

The reported value for C=C(C)[C@@H]1CC[C@]2(C(=O)N[C@H](CO)Cc3ccccc3)CC[C@]3(C)[C@H](CC[C@@H]4[C@@]5(C)CCCNC(C)(C)[C@@H]5CC[C@]43C)[C@@H]12 in terms of growth is -82.3

Summary for this molecule, CCN(CC)CC[n+]1cc2cc(OC)c(OC)cc2c2ccc3cc4c(cc3c21)OCO4 : growth is 32.9

The reported value for Cc1ccc(S(=O)(=O)NNC(=O)/C(=C\c2ccc(Cl)cc2)c2nc3ccccc3s2)cc1 in terms of growth is 79.5

###

# Test system: LOX IMVI melanoma
# ASSAY REMARKS: NCI-60 one-dose screen, 48 h (100 = growth as untreated, 0 = no growth, -100 = all killed)
# MEASUREMENT CONDITIONS: 10 µM unless noted
Compounds without any hit were thinned out: in the full panel of roughly 83,000, 20% have a hit.
PARAMETER: growth (%)
Write down the numeric answer in % and omit the unit.

Bench note, LOX IMVI melanoma: entry Nc1n[nH]c2cccc(C#Cc3cccc(C(=O)Nc4cccc(C(F)(F)F)c4)c3)c12 , its growth = 38

I looked up COc1cc(C2C3=C(COC3=O)N(CCO)c3cc4c(cc32)CCC4)cc(OC)c1OC (configuration not stated) and its growth for LOX IMVI melanoma was 21.6

The compound COc1ccc(CC(C)=C(c2ccc(OCCN3CCCCCC3)cc2)c2ccc(OCCN3CCCCCC3)cc2)cc1 , tested on LOX IMVI melanoma, showed growth of -100

Reported growth (LOX IMVI melanoma) for entry CCOC(=O)c1cc(C(=O)c2ccc(Br)cc2)n2ccc(/C=C/c3cc[n+](CC(=O)c4ccc(OC)cc4)cc3)cc12 is 81

Response field growth (LOX IMVI melanoma) for item Cc1ccc(-n2cc(-c3ccccc3)c3c2N=NN2CCN=C32)cc1 : 97.7

growth of COc1ccc(C(=O)/C=C/c2cc3ccccc3n3nnnc23)cc1 , assay on LOX IMVI melanoma, is 104

Item: CCNC(=O)Oc1ccc(/C(=C(\C)c2ccccc2)c2ccc(OCCN3CCCCC3)cc2)cc1 | System: LOX IMVI melanoma | growth: 57.3

Record O=C(/C=C(/C=C/c1csc2ccccc12)OB(F)F)/C=C/c1csc2ccccc12 has LOX IMVI melanoma growth equal to -3.05

// compound Cc1ccc(S(=O)(=O)NNC(=O)/C(=C\c2ccc(Cl)cc2)c2nc3ccccc3s2)cc1 , assay LOX IMVI melanoma, growth value: 90.5

growth value, target or system LOX IMVI melanoma, for Cc1cc2nc3c4cccc(O)c4n(CCN(C)C)c3nc2cc1C : 8.06

growth for LOX IMVI melanoma with input CC(=O)OC[C@]12CC[C@@H](C(=O)CBr)[C@@H]1[C@H]1CC[C@@H]3[C@@]4(C)CC[C@H](OC(C)=O)C(C)(C)[C@@H]4CC[C@@]3(C)[C@]1(C)CC2 equals -69.6

// returns growth for CC(Sc1nc2ccccc2c(=O)n1CCc1ccc(S(N)(=O)=O)cc1)C(=O)Nc1ccc(Cl)cc1 (configuration not stated) with LOX IMVI melanoma; value = 88.3

###

# Test system: EKVX NSCLC
# ASSAY REMARKS: NCI-60 one-dose screen, 48 h
# MEASUREMENT CONDITIONS: 10 µM unless noted
This is part of a sample that, as a whole, favours compounds with a hit. Of some 83,000 tested, about 20% had one in any assay. The source made the active and inactive calls. Rule for the calls: active = growth percent below 10; inactive = the rest.
Form entry, call: pick from True = active, False = inactive

**Query** Per the records of this test, what outcome belongs to c1ccc2cc(Cn3c(-c4cccc5ccccc45)[n+](Cc4ccc5ccccc5c4)c4c5ccccc5c5ccccc5c43)ccc2c1 ?
**Result** True

**Query** What call does the record list for CCN(CC)CCn1c(=O)c2cc(OC)c(OC)cc2c2ccc3cc4c(cc3c21)OCO4 ?
**Result** False

**Query** Fill in: this test's call for O=C1c2ccc3c4c(ccc(c24)C(=O)N1CCCNCc1ccccc1Cl)C(=O)N(CCCNCc1ccccc1Cl)C3=O is ___
**Result** True

**Query** Outcome logged for C=C1C(=O)O[C@H]2[C@H]1CC/C(COC(=O)NCc1c[nH]c3ccc(F)cc13)=C\CC[C@@]1(C)O[C@@H]21 in this assay:
**Result** False

**Query** Hi, do you know how OCc1cnccc1NCCCCOc1ccc(Oc2ccccc2)cc1 came out in this test?
**Result** False

**Query** // return assay outcome for NS(=O)(=O)c1ccc(CCN2C(=O)C3C(C2=O)C2(Cl)C(Cl)=C(Cl)C3(Cl)C2(Cl)Cl)cc1 (centres undefined)
**Result** False

**Query** Could you please tell me the result logged for CCNC(=O)Oc1ccc(/C(=C(\C)c2ccccc2)c2ccc(OCCN(CC)CC)cc2)cc1 in this assay?
**Result** False

**Query** Status in this test for Cc1cc2nc3c4cc(C=O)ccc4n(CCN(C)C)c3nc2cc1C ?
**Result** False

**Query** Given O=C1c2cccc3c(-c4ccc5c(c4)ncn5C4CCCCC4)ccc(c23)C(=O)N1CCO , state the outcome it received in this test.
**Result** False

**Query** Answer briefly: the call reported for COc1ccc(-c2nc(S(=O)(=O)c3ccccc3)c(S(=O)CC(=O)N3CCC(C)CC3)o2)cc1 (centres undefined) in this assay.
**Result** False

**Query** // return assay outcome for O=C(C[n+]1cccc2ccccc21)c1ccc(O)c(O)c1
**Result** False

**Query** Hi team, can someone confirm the assay call for C=C(C)[C@@H]1CC[C@]2(C(=O)N3CCN(C)CC3)CC[C@]3(C)[C@H](CC[C@@H]4[C@@]5(C)C/C(=C/c6cccnc6)C(=O)C(C)(C)[C@@H]5CC[C@]43C)[C@@H]12 ?
**Result** False

**Query** // outcome(item) with item = CCOC(=O)[C@@H](C)C[C@H](Cc1ccccc1)NC(=O)c1csc([C@@H](C[C@H](C(C)C)N(C)C(=O)[C@@H](NC(=O)[C@H]2C[C@H](O[Si](C)(C)C(C)(C)C)CCN2C)C(C)C)OC(C)=O)n1
**Result** False

**Query** Check the results log: what was the call for NS(=O)(=O)c1ccc(CCn2c(SCC(=O)c3ccc(Cl)cc3)nc3ccccc3c2=O)cc1 ?
**Result** False

**Query** Tell me the recorded outcome of this test for CC(C)(C)c1cc(C=O)cc(C(C)(C)C)c1O .
**Result** False

**Query** How was CCOC(=O)C1=C(CCl)NC(=O)NC1c1ccc2c(c1)OCO2 (centres undefined) classified in this test?
**Result** False

**Query** Recorded test outcome, item CC(c1ccccc1)C(C(=O)c1ccccc1)c1ccccc1 (centres undefined)
**Result** False

**Query** Assay result, entry COc1ccc(-c2nc3sccn3c2/C=C/C(=O)c2ccc3c(c2)OCO3)cc1 — outcome?
**Result** False

**Query** Just curious, what result did CNC(=O)c1cc(Cn2nc(C)c(NC(=O)Nc3ccc(Cl)c(C(F)(F)F)c3)c2C)ccn1 get here?
**Result** False

###

# System: SW-620 colon
# ASSAY REMARKS: NCI-60 one-dose screen, 48 h (100 = growth as untreated, 0 = no growth, -100 = all killed)
# MEASUREMENT CONDITIONS: 10 µM unless noted
About 83,000 compounds went through this panel and 20% of them were active in at least one assay; those are over-represented in the sample as a whole.
I'd appreciate it if you could supply growth values for the items below.
Supply the numeric figure in %, leaving out any unit text.

Entry CC(Sc1nc2ccccc2c(=O)n1CCc1ccc(S(N)(=O)=O)cc1)C(=O)Nc1ccc(Cl)cc1 (centres undefined) — recorded growth = 98.1

Looking up O=C(CCN1CCCC1)Nc1ccc2c(Nc3ccc(Br)cc3)c3ccccc3nc2c1 , I see its growth listed as -64.8

// growth value for COc1ccc(C(C)=O)c(OC)c1 : 106

Form field growth, entry NNC(=O)c1ccc(-n2nc(-c3ccccc3)c3ccccc32)cc1 : 95.5
